Where do the numbers come from? From ChEMBL document CHEMBL5236645.

targetEntity: Gamma-aminobutyric acid receptor subunit alpha-1 (Homo sapiens)
Sequence (P14867 whole entry): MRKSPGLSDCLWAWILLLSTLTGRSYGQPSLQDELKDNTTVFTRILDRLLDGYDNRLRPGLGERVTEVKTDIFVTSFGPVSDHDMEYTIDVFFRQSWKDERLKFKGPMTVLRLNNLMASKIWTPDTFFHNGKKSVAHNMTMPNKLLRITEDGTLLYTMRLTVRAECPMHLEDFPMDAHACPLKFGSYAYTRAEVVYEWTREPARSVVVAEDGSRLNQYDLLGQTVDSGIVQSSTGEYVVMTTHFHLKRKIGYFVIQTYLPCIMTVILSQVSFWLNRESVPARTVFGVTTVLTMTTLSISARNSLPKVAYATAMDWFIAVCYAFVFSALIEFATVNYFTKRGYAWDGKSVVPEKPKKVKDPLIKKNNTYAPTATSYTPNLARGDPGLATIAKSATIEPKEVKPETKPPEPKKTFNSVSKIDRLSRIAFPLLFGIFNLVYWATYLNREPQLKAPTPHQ
assayProtocol: Negative allosteric modulation of alpha1 GABAA (unknown origin)
pKi: −log10 of the molar value.
measuredMetric: pKi

(P) Cc1cc(-c2nnc3c4ccccc4c(OCc4ccccn4)nn23)no1
(Q) Cc1onc(-c2ccc(F)cc2)c1COc1ccc(C(=O)N2CCS(=O)(=O)CC2)cn1
Ask: Sort P and Q by pKi descending and give the first. Your answer should be the label attached to the chosen record.
Reply: P

###

targetEntity: Gamma-aminobutyric acid receptor subunit alpha-5 (Homo sapiens)
Sequence (P31644 whole entry): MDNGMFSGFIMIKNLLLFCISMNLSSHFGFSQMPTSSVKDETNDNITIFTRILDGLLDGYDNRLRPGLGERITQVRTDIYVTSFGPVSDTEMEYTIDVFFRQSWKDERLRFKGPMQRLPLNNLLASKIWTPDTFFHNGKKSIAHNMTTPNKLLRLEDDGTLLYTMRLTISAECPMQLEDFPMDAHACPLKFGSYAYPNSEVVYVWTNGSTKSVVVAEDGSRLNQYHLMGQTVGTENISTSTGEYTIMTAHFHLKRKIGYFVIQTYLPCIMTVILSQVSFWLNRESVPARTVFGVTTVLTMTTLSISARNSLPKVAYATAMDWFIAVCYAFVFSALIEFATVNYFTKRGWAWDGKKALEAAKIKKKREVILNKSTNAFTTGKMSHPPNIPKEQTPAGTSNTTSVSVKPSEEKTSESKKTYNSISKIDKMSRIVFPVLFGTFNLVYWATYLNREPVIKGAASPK
assayProtocol: Displacement of flumazenil from alpha5 GABAA receptor (unknown origin) at 1 uM relative to control
measuredMetric: Activity (%)

N#Cc1cccc2c1n1cncc1c(=O)n2Cc1cccnc1 | 0

(P) O=c1c2cncn2c2ccccc2n1CCc1ccccn1
(Q) COc1ccc2c(c1)n1cncc1c(=O)n2Cc1cccnc1
(R) O=c1c2cncn2c2ccccc2n1-c1ccccn1
Ask: Put the compounds in ascending order of Activity. Order the labels as requested and give them as your answer.
Reply: R, Q, P

###

targetEntity: Gamma-aminobutyric acid receptor subunit alpha-5 (Homo sapiens)
assayProtocol: Negative allosteric modulation of alpha5 GABAA (unknown origin)
measuredMetric: Ki (nM)

(a) Cc1onc(-c2ccc(F)cc2)c1COc1ccc(C(=O)N2CCS(=O)(=O)CC2)cn1
(b) Cc1cc(-c2nnc3c4ccccc4c(OCc4ccccn4)nn23)no1
Ask: Sort a and b by Ki descending and give the first. Your answer should be the label attached to the chosen record.
Reply: a
(a: 4.4 nM, b: 0.5 nM)

###

targetEntity: Gamma-aminobutyric acid receptor subunit alpha-1 (Homo sapiens, UniProt P14867)
assayProtocol: Displacement of flumazenil from alpha1 GABAA receptor (unknown origin)
pKi: −log10 of the molar value.
measuredMetric: pKi

Record excerpt, results attached:
CCOC(=O)c1ncn2c1c(=O)n(Cc1cccnc1)c1cccc(Cl)c12 | 8.15
Cc1ccc(Cn2c(=O)c3cncn3c3ccccc32)cn1 | 7.46
O=c1c2cncn2c2ccccc2n1Cc1cccnc1 | 7.49
Cc1cncc(Cn2c(=O)c3cncn3c3ccccc32)c1 | 7.22
CC(C)(C)c1ccc2c(c1)n(Cc1cccnc1)c(=O)c1cncn12 | 6.51
O=c1c2cncn2c2c(Cl)cccc2n1Cc1cccnc1 | 5.67
CN1C(=O)COc2cc(Cn3c(=O)c4cncn4c4ccccc43)ccc21 | 7.13
CCOC(=O)c1ncn2c1c(=O)n(Cc1cccnc1)c1ccccc12 | 9.40
O=c1c2c(CC3CC3)ncn2c2ccccc2n1Cc1ccccn1 | 7.64
O=c1c2cncn2c2ccccc2n1Cc1cnccn1 | 7.26

(I) O=c1c2cncn2c2c(Cl)cc(Cl)cc2n1Cc1cccnc1
(II) O=c1c2cncn2c2ccccc2n1Cc1cncnc1
Ask: Returns: the label, I or II , whose recorded pKi is the lower number. Your answer should be the label attached to the chosen record.
Reply: I
(I: 6.38, II: 7.52)

(I) Cc1ncn2c1c(=O)n(Cc1ccccn1)c1ccccc12
(II) O=c1c2c(Cl)ncn2c2ccccc2n1Cc1ccccn1
(III) Cc1cc(Cn2c(=O)c3cncn3c3ccccc32)no1
Ask: Sort by pKi, descending. Order the labels as requested and give them as your answer.
Reply: II, I, III
(II: 8.27, I: 7.80, III: 7.49)

(A) Cc1ncc(Cn2c(=O)c3cncn3c3ccccc32)cn1
(B) COc1cc(Cl)c2c(c1)n(Cc1cccnc1)c(=O)c1cncn12
Ask: Returns: the label, A or B , whose recorded pKi is the lower number. Your answer should be the label attached to the chosen record.
Reply: B

(I) COc1ccc2c(c1)n(Cc1cccnc1)c(=O)c1cncn12
(II) Cc1ncn2c1c(=O)n(Cc1cccnc1)c1ccccc12
(III) Cc1cccc2c1n1cncc1c(=O)n2Cc1cccnc1
Ask: Sort by pKi, descending. Order the labels as requested and give them as your answer.
Reply: II, I, III

(a) Cn1cc(Cn2c(=O)c3cncn3c3ccccc32)cn1
(b) COc1cc(Cl)c2c(c1)n(Cc1cnccc1C)c(=O)c1cncn12
(c) O=c1c2cncn2c2ccccc2n1Cc1ccccn1
(d) O=c1c2cncn2c2ccc(Cl)cc2n1Cc1cccnc1
Ask: Sort by pKi, descending. Order the labels as requested and give them as your answer.
Reply: d, c, a, b

(A) O=c1c2c(CO)ncn2c2ccccc2n1Cc1cccnc1
(B) Cc1ccncc1Cn1c(=O)c2cncn2c2ccccc21
Ask: Returns: the label, A or B , whose recorded pKi is the lower number. Your answer should be the label attached to the chosen record.
Reply: A
(A: 7.00, B: 7.22)
